Target: Leucine--tRNA ligase (Staphylococcus aureus)
Experiment: Compound was evaluated for its inhibitory activity against Leucyl-tRNA synthetase from staphylococcus aureus WCUH29
experimental-endpoint: IC50 (µM)
Return type: number; implicit unit µM.

Answer with the recorded IC50 of CC[C@H](C)[C@H](N)C(=O)NS(=O)(=O)CC(=O)N[C@]1(C(=O)OC)[C@@H]2CN(C)C=C(C(N)=O)[C@@H]2C[C@@H]1O only.
186

The reported measurements were obtained from BindingDB's records for doi:10.1016/s0960-894x(00)00456-x.
